Where do the numbers come from? From paper PMC12396409.

# Test system: P. falciparum 3D7 parasites
# experimentDescription: P. falciparum growth inhibition assay, 1-cycle (72 h treatment), SYBR DNA staining (library screen at 2 μg/mL and dose-response)
# Assay type: cell-based, Plasmodium falciparum
# assayContext: Plasmodium falciparum, 3D7; P. falciparum, 72 h, screen at 2 μg/mL, replicate 2; read-out: Pf_72h_%Growth_Rep2
Here the recorded activity at 2 µg/mL is given for each entry.
The answer is to be given in %; state only the numeric part.

- CC[C@H]1OC(=O)C[C@@H](O)[C@H](C)[C@@H](O[C@@H]2O[C@H](C)[C@@H](O)[C@H](N(C)C)[C@H]2O)[C@@H](CCN2CCCCC2)C[C@@H](C)C(=O)/C=C/C(C)=C/[C@@H]1CN1CCCCC1 [Tildipirosin]: 5.94
- CC[C@H]1CC2CN3CCc4c([nH]c5ccc(OC)cc45)[C@](C(=O)OC)(C2)[C@H]13 (stereo in doubt) [Voacangine]: 89.9
- COC(=O)C1=C2Nc3ccccc3[C@@]23CCN2C[C@]4(C[C@@H]5C[C@]67CCC[C@H]6CCN6CC[C@@]8(c9cccc(OC)c9N(C4)[C@@]58O)[C@@H]67)[C@@H]4OCC[C@]4(C1)[C@H]23 [Vobtusine]: 87
- COc1cc(-c2ccc(O)cc2)c(OC)c(O)c1-c1ccc(O)cc1 [Terphenyllin]: 91.8
- CO[C@H]1C[C@@H]2CC[C@@H](C)[C@@](O)(O2)C(=O)C(=O)N2CCCC[C@H]2C(=O)O[C@H]([C@H](C)C[C@@H]2CC[C@H](n3cnnn3)[C@H](OC)C2)CC(=O)[C@H](C)/C=C(\C)[C@@H](O)[C@@H](OC)C(=O)[C@H](C)C[C@H](C)/C=C/C=C/C=C/1C [Zotarolimus]: 88.3
- Cc1nnc2n1-c1sc(CCC(=O)N3CCOCC3)cc1C(c1ccccc1Cl)=NC2 [WEB 2086]: 87.4
- C=C[C@]1(C)C[C@@H](OC(=O)CSC(C)(C)CNC(=O)[C@H](N)C(C)C)[C@]2(C)[C@H](C)CC[C@]3(CCC(=O)[C@H]32)[C@@H](C)[C@@H]1O [Valnemulin, reference compound]: 55.9
- C=C[C@]1(C)C[C@@H](OC(=O)CSCCN(CC)CC)[C@]2(C)[C@H](C)CC[C@]3(CCC(=O)[C@H]32)[C@@H](C)[C@@H]1O [Tiamulin, reference compound]: 48.7

For the molecule shown here, COc1c(OC/C=C(\C)CCC=C(C)C)ccc2ccc(=O)oc12 [Collinin] , give the reported activity at 2 µg/mL.
86.1

# iterate: C/C=C/C1=CC(=O)[C@@H](O)[C@@H]1O [Terrein]
91.3

# iterate: C[C@@H]1C[C@@H]([C@H](O)CC2CC(=O)NC(=O)C2)C(=O)[C@@H](C)C1 [cycloheximide, reference compound]
4.34

# iterate: O=C1NC(c2c[nH]c3ccc(O)cc23)=C/C1=C1\C(=O)Nc2ccccc21 [Violacein]
90.2
